- experimental-details: Fraction unbound in Hartley guinea pig brain
- Type: ADME, tissue-based, Cavia porcellus
endpoint-label: fraction unbound
Lab note: record the figure alone, no unit after it.

What the record says about Cc1cn(-c2ccc3n(c2=O)CCN(CCOc2ccc(Cl)cc2C(F)(F)F)C3=O)cn1 : fraction unbound is 0.008

---

- experimental-details: Bioavailability in rat at 1 mg/kg, iv and 5 mg/kg, po
- Assay type: ADME, organism-based
- condition-label: in vivo
Reported bioavailability is given for each of the following compounds.
Give just the numeric value; % need not be written.

Below, each entry is followed by its recorded bioavailability result.
Cc1cn(-c2ccc3n(c2=O)CCN(CCOc2ccccc2C(F)(F)F)C3=O)cn1 ... 23
Cc1cn(-c2ccc3n(c2=O)CCN(CCOc2ccc(F)cc2C(F)(F)F)C3=O)cn1 ... 100

# evaluate next
What the record says about Cc1cn(-c2ccc3n(c2=O)CCN(CCOc2ccc(Cl)cc2C(F)(F)F)C3=O)cn1 : bioavailability is 88
